Tested on: P12-Ichikawa
Assay: cell viability relative to DMSO control; higher = less cytotoxic
Conditions: HPLM + 10% dialyzed FBS; 48 h; 5.12 µM
Response field label: string, one of Condition met (cell viability strictly below 80%) or Condition not met.

>  <molecule>
COC(=O)c1ccc2c(c1)NC(=O)/C2=C(\Nc1ccc(N(C)C(=O)CN2CCN(C)CC2)cc1)c1ccccc1

>  <qualitative.label>
Condition not met

$$$$
>  <molecule>
COC1=C(OCCCN2CCOCC2)C=CC\3=C1/N=C(/NC(=O)C4=CN=C(N)N=C4)N5CC/N=C35

>  <qualitative.label>
Condition met

$$$$
>  <molecule>
COc1cc(C(=O)N2CC[C@@H](O)[C@@H](N)C2)cc2nc(-c3cc4ccccc4n3CC3CC3)n(C)c12

>  <qualitative.label>
Condition met

$$$$
>  <molecule>
O=C(CCCN1CCN(c2ccc(F)cc2)CC1)NC1c2ccccc2CSc2ccccc21 (stereo not drawn)

>  <qualitative.label>
Condition not met

$$$$
>  <molecule>
CNCC[C@H](Oc1cccc2ccccc12)c1cccs1

>  <qualitative.label>
Condition not met

$$$$
>  <molecule>
COC1=CC=C(C(=C1)OC(C)C)C/2=N/[C@@H]([C@@H](N2C(=O)N3CCNC(=O)C3)C4=CC=C(Cl)C=C4)C5=CC=C(Cl)C=C5

>  <qualitative.label>
Condition met

$$$$
>  <molecule>
COc1ccc(C(=O)CC2(O)C(=O)Nc3c(Cl)ccc(Cl)c32)cc1 (stereo not drawn)

>  <qualitative.label>
Condition met

$$$$
>  <molecule>
O=P(O)(O)C(O)(Cn1ccnc1)P(=O)(O)O

>  <qualitative.label>
Condition not met

$$$$
